- Test system: CCRF-CEM leukemia
- EXPERIMENT_DESCRIPTION: NCI tumour cell line growth inhibition, 48 h
PARAMETER: TGI

Query string: Respond only with TGI recorded for `CCCCCCCCCCCCCC[C@@H](O)[C@H]1CC[C@H]([C@H]2CC[C@H]([C@H](O)CCCCCC[C@@H](O)CC3=C[C@H](C)OC3=O)O2)O1`
Result string: > 25 µM

Query string: For the molecule CC1(c2ccc(Cl)cc2)C2C(=O)NC(=O)C1C(=O)NC2=O (configuration not stated) , give its measured TGI value.
Result string: > 100 µM

Query string: For the molecule `CCc1nc2ccc(NCCN(C)C)c3c(=O)c4ccccc4n1c23` , give its measured TGI value.
Result string: 15.1 µM

Query string: Report TGI, nothing else, for this molecule: `Cc1cc(N2CCN(C)CC2)n2nc(-c3ccc(Cl)cc3)nc2n1`
Result string: > 100 µM

New cases:
Query string: Answer with the recorded TGI for the molecule listed here: `CCCC(CCN)(CCN)[N+](=O)[O-]`
Result string: > 100 µM

Query string: Determine from records and report TGI for `COc1nnc2ccc(N3CCC(c4ccc(OCCN5CCN(C)C(=O)[C@H]5C)cc4)CC3)nn12`
Result string: > 100 µM

Query string: Identify measured TGI corresponding to CC1C(c2ccc(Cl)cc2)c2cc3c(cc2OC1N1CCOCC1)OCO3 (configuration not stated)
Result string: > 100 µM

====

- Test system: HT29 colon
- EXPERIMENT_DESCRIPTION: NCI tumour cell line growth inhibition, 48 h
PARAMETER: TGI

Reference set (3 entries):
Query string: Identify the reported TGI for the following entry. `Cc1nc2ccccc2c(/C=C/c2ccc(Cl)cc2)c1C(=O)/C=C/c1ccc(Cl)cc1`
Result string: > 100 µM

Query string: Fill in TGI for record `O=S(=O)(c1cnccc1N1CCN(CCO)CC1)N1CCCC1`
Result string: > 100 µM

Query string: State, in one line, measured TGI of Nc1ncnc2c1ncn2C1CC(OCc2ccccc2[N+](=O)[O-])C(CO)O1 (stereo not given)
Result string: > 50 µM

Others:
Query string: Indicate the recorded TGI value for this compound: CSC1NC(c2ccc(Cl)cc2)=C(C#N)C(=O)N1C1OCC(OC(C)=O)C(OC(C)=O)C1OC(C)=O (stereo not given)
Result string: > 100 µM

Query string: Give TGI for the following compound: `COc1ccc2oc(=O)c(-c3csc(C)n3)cc2c1`
Result string: > 100 µM

Query string: Quote TGI reported for `O=C(COc1cccc(/C=C2\CSc3ccccc3C2=O)c1)Nc1nccs1` please.
Result string: 3.43 µM

Query string: Specify reported TGI for the compound shown: Cc1cc(=O)[nH]c(NN2C(Cl)C(=O)C2c2cccc(Cl)c2)n1 (stereo not given)
Result string: 76.8 µM

Query string: State its TGI for this compound: `CCC(=O)c1c(C(F)(F)F)n([O-])c2cc(F)c(F)cc2[n+]1=O`
Result string: 0.492 µM

====

- Test system: TK-10 renal
- EXPERIMENT_DESCRIPTION: NCI tumour cell line growth inhibition, 48 h
PARAMETER: log10(TGI) (log10 of the value in µM)
Please note: log10 values; quantity TGI; unit µM.

Query string: Provide only the value of recorded log10(TGI) for `COc1cc2cc(Oc3ccc(NC(=O)Nc4ccc(Cl)c(Cl)c4)cc3)c(C)nc2cc1OC`
Result string: 0.96

---
Query string: Give log10(TGI) for the following compound: `CN(C)CCNC(=O)c1cccc2c1Oc1c(cccc1[N+](=O)[O-])O2`
Result string: 0.78

Query string: Give me measured log10(TGI), please, for this compound: `O=C(NC(=S)NC(=O)c1cc(O)c(O)c(O)c1)c1cc(O)c(O)c(O)c1`
Result string: 1.79

Query string: Report log10(TGI), nothing else, for this compound: `O=C(COc1cccc(/C=C2\CSc3ccccc3C2=O)c1)Nc1nccs1`
Result string: 0.69

Query string: Please supply the value of reported log10(TGI) for the item `CN1CCN(CCCOc2cccc3nc(Nc4ccc(Cl)c(C(F)(F)F)c4)ccc23)CC1`
Result string: 0.54

These data points were gathered from PubChem BioAssay (NCI).
